System: yeast-like fungi (C. glabrata)
Assay: Flow cytometry of urine specimen spiked with yeast-like fungi: fluorescence stainability of the fungi
Type: cell-based
Conditions: average fluorescence signal of yeast-like fungi in human urine without erythrocytes; substance at 1.0 wt % in diluting liquid in place of 2-phenoxyethanol; relative values on scale 0-255
The threshold is 70. Values of Fluorescence intensity beneath it are tagged yes; values meeting or exceeding it are tagged no.

# example entries with known answers
Oc1ccccc1    yes
CC(=O)Oc1ccccc1 [Phenyl acetate]    no
c1ccc2scnc2c1    no
CC(O)COc1ccccc1 (stereo not drawn)    no

[Q] Strictly below 70 in Fluorescence intensity? `OCCc1ccccc1`
[A] no

[Q] Consider the compound `OCc1ccccc1` . Is its Fluorescence intensity strictly less than 70?
[A] no

Source: patent US7632683B2
